Hey, just so you know, these numbers are from patent US7247634B2.

MIC by entry:
System: Staphylococcus aureus ATCC29213 rpoB^D417Y
method summary: microbe, parasite or virus in culture
Type: cell-based
cond: ATCC29213, read-out: Antimicrobial activity (MIC)

1) COc1c(N2CCN(C3=C4NC(=O)/C(C)=C\C=C\[C@H](C)[C@H](O)[C@@H](C)[C@@H](O)[C@@H](C)[C@H](OC(C)=O)[C@H](C)[C@@H](OC)/C=C/O[C@@]5(C)Oc6c(C)c(O)c(c(c6C5=O)C3=O)C4=O)C(C)C2)c(F)cc2c(=O)c(C(=O)O)cn(C3CC3)c12 (stereo partly drawn); 0.06 to 32 µg/mL
2) COc1c(N2CC(NC(=O)C3CCN(C4=C5NC(=O)/C(C)=C\C=C\[C@H](C)[C@H](O)[C@@H](C)[C@@H](O)[C@@H](C)[C@H](OC(C)=O)[C@H](C)[C@@H](OC)/C=C/O[C@@]6(C)Oc7c(C)c(O)c(c(c7C6=O)C4=O)C5=O)CC3)C2)c(F)cc2c(=O)c(C(=O)O)cn(C3CC3)c12; 0.06 to 32 µg/mL

Now consider the entry below.
// Input: `CO[C@H]1/C=C/O[C@@]2(C)Oc3c(C)c(O)c4c(c3C2=O)C(=O)C(N2CCN(c3nc5c(cc3F)c(=O)c(C(=O)O)cn5-c3ccc(F)cc3F)CC2)=C(NC(=O)/C(C)=C\C=C\[C@H](C)[C@H](O)[C@@H](C)[C@@H](O)[C@@H](C)[C@H](OC(C)=O)[C@@H]1C)C4=O` . Output its MIC only.
0.06 to 32 µg/mL

----------
Measured MIC accompanies every entry in the list below.
Tested on: Enterococcus faecalis ATCC29212
method summary: MIC, microbroth dilution (NCCLS)
Type: cell-based
cond: rifS strain, BHI Broth, 37° C., read-out: Antimicrobial activity (MIC)

1) CO[C@H]1/C=C/O[C@@]2(C)Oc3c(C)c(O)c4c(O)c(c(CN5CCN(c6cc7c(cc6F)c(=O)c(C(=O)O)cn7C6CC6)CC5)c(O)c4c3C2=O)NC(=O)/C(C)=C\C=C\[C@H](C)[C@H](O)[C@@H](C)[C@@H](O)[C@@H](C)[C@H](OC(C)=O)[C@@H]1C; 2 to 32 µg/mL

For the next question, use this molecule.
With Enterococcus faecalis ATCC29212 as the test system, provide measured MIC for this molecule: `CO[C@H]1/C=C/O[C@@]2(C)Oc3c(C)c(O)c4c(c3C2=O)C(=O)C(NCCN2CCN(c3ccc(N5C[C@H](CNC(C)=O)OC5=O)cc3F)CC2)=C(NC(=O)/C(C)=C\C=C\[C@H](C)[C@H](O)[C@@H](C)[C@@H](O)[C@@H](C)[C@H](OC(C)=O)[C@@H]1C)C4=O`
2 to 32 µg/mL
